Test system: L02
ASSAY_DETAILS: cells
Type: ADME, cell-based
EXPERIMENTAL_PARAMETERS: Homo sapiens, L02, 72 h
Description: Cytotoxicity against human L02 cells assessed as reduction in cell viability measured after 72 hrs by MTT assay

{"SUBSTANCE_SMILES": "CC(C)n1nc(-c2ccc3oc(N)nc3c2)c2c(N)ncnc21", "STUDY_TARGET": "L02", "ENDPOINT_UNIT": "µM", "IC50": 0.28}
{"SUBSTANCE_SMILES": "Nc1nc2cc(-c3nn(CCCCCCC(=O)NO)c4ncnc(N)c34)ccc2o1", "STUDY_TARGET": "L02", "ENDPOINT_UNIT": "µM", "IC50": 24.8}
{"SUBSTANCE_SMILES": "Nc1nc2cc(-c3nn(CCCCCCCC(=O)NO)c4ncnc(N)c34)ccc2o1", "STUDY_TARGET": "L02", "ENDPOINT_UNIT": "µM", "IC50": 8.04}
{"SUBSTANCE_SMILES": "Nc1ncnc2c1c(-c1cnc3[nH]ccc3c1)nn2CCCCCCCCC(=O)NO", "STUDY_TARGET": "L02", "ENDPOINT_UNIT": "µM", "IC50": 35.1}

----------
System: MDA-MB-231
ASSAY_DETAILS: cells
Format: functional, cell-based
EXPERIMENTAL_PARAMETERS: Homo sapiens, MDA-MB-231, 72 h
Description: Antiproliferative activity against human MDA-MB-231 cells assessed as inhibition of cell growth measured after 72 hrs by MTT assay
# strict inequality: IC50 < 6 µM yields T, everything else yields F

{"SUBSTANCE_SMILES": "Nc1ncnc2c1c(-c1cnc3[nH]ccc3c1)nn2CCCCCC(=O)NO", "STUDY_TARGET": "MDA-MB-231", "CLASS_NAME": "F"}
{"SUBSTANCE_SMILES": "Nc1ncnc2c1c(-c1cnc3[nH]ccc3c1)nn2CCC(=O)NO", "STUDY_TARGET": "MDA-MB-231", "CLASS_NAME": "F"}
{"SUBSTANCE_SMILES": "Nc1nc2cc(-c3nn(CCCCCCCC(=O)NO)c4ncnc(N)c34)ccc2o1", "STUDY_TARGET": "MDA-MB-231", "CLASS_NAME": "T"}
{"SUBSTANCE_SMILES": "Nc1nc2cc(-c3nn(CCC(=O)NO)c4ncnc(N)c34)ccc2o1", "STUDY_TARGET": "MDA-MB-231", "CLASS_NAME": "F"}
{"SUBSTANCE_SMILES": "Nc1ncnc2c1c(-c1cnc3[nH]ccc3c1)nn2CCCC(=O)NO", "STUDY_TARGET": "MDA-MB-231", "CLASS_NAME": "F"}
{"SUBSTANCE_SMILES": "Nc1nc2cc(-c3nn(CCCCCCCCCC(=O)NO)c4ncnc(N)c34)ccc2o1", "STUDY_TARGET": "MDA-MB-231", "CLASS_NAME": "F"}
{"SUBSTANCE_SMILES": "Nc1nc2cc(-c3nn(CCCCC(=O)NO)c4ncnc(N)c34)ccc2o1", "STUDY_TARGET": "MDA-MB-231", "CLASS_NAME": "F"}
{"SUBSTANCE_SMILES": "Nc1ncnc2c1c(-c1cnc3[nH]ccc3c1)nn2CCCCCCCC(=O)NO", "STUDY_TARGET": "MDA-MB-231", "CLASS_NAME": "F"}
{"SUBSTANCE_SMILES": "Nc1nc2cc(-c3nn(CC(=O)NO)c4ncnc(N)c34)ccc2o1", "STUDY_TARGET": "MDA-MB-231", "CLASS_NAME": "F"}
{"SUBSTANCE_SMILES": "CC(C)n1nc(-c2ccc3oc(N)nc3c2)c2c(N)ncnc21", "STUDY_TARGET": "MDA-MB-231", "CLASS_NAME": "T"}
